These measurements were taken from PubChem BioAssay AID1259407.

System: CCRIS mutagenicity, Ames/micronucleus/aberration tests
Assay: CCRIS mutagenicity studies
Conditions: Test System: AMES SALMONELLA TYPHIMURIUM; Strain/Indicator: TA98; Metabolic Activation: NONE; Method: PREINCUBATION
Activity calls are given as the source filed them. How the calls were made is not given here.
# output must be one of y = active, n = inactive

Past entries and their recorded results:
{"columns": ["COMPOUND", "ANSWER_LABEL"],
 "data": [
  ["O=S(=O)(O)c1ccc2c(N=Nc3ccccc3)c(O)ccc2c1", "n"],
  ["Cc1c([N+](=O)[O-])c2ccccc2c2ccc3ccccc3c12", "n"],
  ["Cc1noc(NS(=O)(=O)c2ccc(N)cc2)c1C", "n"],
  ["Cc1cc(C)cc(N)c1", "n"],
  ["O=[N+]([O-])c1ccc(I)c([N+](=O)[O-])c1", "y"]
]}

Prompt line: State the result this test recorded for "Brc1cccc(-c2ccccc2)c1" .
Response line: n

Prompt line: Which outcome did this test record for the compound "Cc1cccc2cccc([N+](=O)[O-])c12" ?
Response line: y

Prompt line: Query: recorded result category for "Oc1cccc(O)c1O" in this test
Response line: n

###

Tested on: CCRIS mutagenicity, Ames/micronucleus/aberration tests
Experiment: CCRIS mutagenicity studies
Conditions: Test System: AMES SALMONELLA TYPHIMURIUM; Strain/Indicator: TA1535; Metabolic Activation: NONE; Method: STANDARD PLATE
The source made the active and inactive calls. The rule behind the calls is not given here.
READOUT_LABEL: mutagenic call

{"columns": ["COMPOUND", "mutagenic call"],
 "data": [
  ["CCN(CC)CCNc1ccc(CO)c2sc3ccccc3c(=O)c12", "inactive; negative"],
  ["CNc1snc2ccccc12", "inactive; negative"],
  ["CN1CCC=C2c3nc(N)sc3CCC21 (centres undefined)", "inactive; negative"],
  ["O=c1oc2ccc([N+](=O)[O-])cc2c2ccccc12", "active; positive"],
  ["C[C@H]1[C@H](C)CC[C@]2(C(=O)O[C@@H]3O[C@H](CO[C@@H]4O[C@H](CO)[C@@H](O[C@@H]5O[C@@H](C)[C@H](O)[C@@H](O)[C@H]5O)[C@H](O)[C@H]4O)[C@@H](O)[C@H](O)[C@H]3O)CC[C@]3(C)C(=CC[C@@H]4[C@@]5(C)C[C@@H](O)[C@H](O)[C@@](C)(CO)[C@@H]5CC[C@]43C)[C@H]12", "inactive; negative"],
  ["O=S(=O)(Nc1ccc(Cl)cc1Cl)c1cccc2cccnc12", "inactive; negative"]
]}

Looking up "CC(C)CCON=O" , I see its mutagenic call listed as active; positive

The reported mutagenic call of the compound "Clc1ccc2c(c1)C(c1ccccc1)=NCc1nncn1-2" was inactive; negative

"CN(C)C(=O)c1nc2n(n1)-c1ccc(Cl)cc1C(c1ccccc1Cl)=NC2" has a reported mutagenic call of inactive; negative

Query "C=CC(=O)OC(C)(C)C" yields mutagenic call of inactive; negative

Record "COc1cc(N)c(OC)cc1N" . Reported mutagenic call: inactive; negative

GET /value?item= Cc1ccc(CC2CO2)cc1 (centres undefined) &field=mutagenic call returns active; positive

Reported mutagenic call ( "CC(C)(Cl)Cl" ) = inactive; negative

The value of mutagenic call measured for the compound "C=CC(=O)OCCOCCOC(=O)C=C" turned out to be inactive; negative

Please fill in: mutagenic call reported for "CC(=O)Nc1ccc(C(=O)CCl)cc1" = inactive; negative

In plain terms, CC1=C(C(=O)OC(C)C)C(c2cccc([N+](=O)[O-])c2)C(C(=O)OC2CN(C(c3ccccc3)c3ccccc3)C2)=C(N)N1 (centres undefined) has a documented mutagenic call of inactive; negative

Short answer for "S=P(N1CC1)(N1CC1)N1CC1" : mutagenic call was active; positive

Please fill in: mutagenic call reported for "CCN(CCCl)c1ccc(CCCNc2c3ccccc3nc3ccccc23)cc1" = inactive; negative

The recorded mutagenic call for entry "O=C(OCc1ccccc1)c1cccc2cccnc12" equals inactive; negative

Given item "Nc1snc2c(Cl)cc(Cl)cc12" , the value recorded as its mutagenic call is inactive; negative

Reported mutagenic call ( "Cc1ccc(OS(=O)(=O)c2cccc3cccnc23)c([N+](=O)[O-])c1" ) = inactive; negative

Summary for this compound, "CCOC(=O)COc1ccc2c(=O)cc(-c3ccccc3)oc2c1" : mutagenic call is inactive; negative

Briefly, mutagenic call measured for "Nc1snc2ccc([N+](=O)[O-])cc12" : inactive; negative

Lab book: mutagenic call of "C[C@H]1CCC[C@H](O)CCCCCc2cc(O)cc(O)c2C(=O)O1" noted as inactive; negative
